Recorded values, source ChEMBL document CHEMBL1131119.

Molecular target: GABA-A receptor; anion channel (Bos taurus) (UniProt P10063+P08220+P20237+P08219+P10064+P22300)
Settings: Brain membranes, at 0.5 µM
The following molecules are shown together with reported Clonazepam values.
observable: Clonazepam (%)

[
  {
    "chemicalSmiles": "O=C(NNc1ccc([N+](=O)[O-])cc1)C(=O)c1c[nH]c2ccccc12",
    "resultUnits": "%",
    "assayValue": 20
  },
  {
    "chemicalSmiles": "O=C(NNc1ccc(F)cc1)C(=O)c1c[nH]c2ccccc12",
    "resultUnits": "%",
    "assayValue": 18
  },
  {
    "chemicalSmiles": "O=C1CN=C(c2ccccc2Cl)c2cc([N+](=O)[O-])ccc2N1",
    "resultUnits": "%",
    "assayValue": 100
  }
]
